Target: T1, mouse IL-17A (mouse, UniProt Q62386 26-158)
T1 sequence (looked up): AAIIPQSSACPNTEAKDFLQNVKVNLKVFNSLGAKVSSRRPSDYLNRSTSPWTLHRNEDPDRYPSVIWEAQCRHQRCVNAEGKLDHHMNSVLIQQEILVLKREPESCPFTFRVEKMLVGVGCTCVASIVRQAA
Experiment: ELISA, coated IL-17A
Decide using OD: a value greater than or equal to -0.003 OD is y, a smaller one is n.

BINDER	CATEGORY
02A08 (VHH, Class 2) VHH: EVQLVESGGGVVQPGGSLRLSCADSERSFSFNAMGWFRQAPGKEREFVAAISATGDDTYYADSVKGRFAISRDTARNTVYLQMNSLKPEDTAVYYCGARVNFDGTVSYTNDYAYWGQGTQVTVSS	y
09G10 (VHH, Class 2) VHH: EVQLVESGGGLVQAGGSLRLSCAASDSVFTAKAVGWYRQPPGLQREWVAIITSGGKTNYADSSVKGRFTVSVDKVKNTVTLQMNSLKPEDTAVYYCYAQWMGRDYWGQGTQVTVSS	y
04G01 (VHH, Class 2; also called IL17MS04G01) VHH: EVQLVESGGGLVQAGGSQRLSCTASGTIVNIHVMGWYRQAPGKQRELVALIFSGGSADYADSVKGRFTISRDNAKNTVYLEMNSLKAEDTAVYYCAAEIGYYSGGTYYSSEAHWGQGTQVTVSS	y
13E05 (VHH, Class 4) VHH: EVQLVESGGGKVQAGDSLTLSCVASGGTFSNYAAWFRQAPGKDRRELVVSIFRTGSITYTADSVKGRFTASRVNTKNTVYLQMNSLKPEDTAVYYCASAYNPGVGYDYWGQGTQVTVSS	y
11C08 (VHH, Class 4) VHH: EVQLVESGGGLVQAGGSLRLSCAASGVIFRLNAMGWYRAAPGKQRELVAIIVNGGSTNYADSVKGRFTISRDSAKNAVYLQMNSLKPEDTAVYYCYYNIPGDVYWGQGTQVTVSS	n
13B05 (VHH, Class 4) VHH: EVQLVESGGRLVQAGGSLRLSCAASGRTFTSYPMGWFRQAPGKEREFVAAISMSGDDTAYTDFVRGRFTISRDDARNTVYLHMTSLKPEDTAVYYCAARTSYDGTYDYIDDYSYWGQGTQVTVSS	n
11A06 (VHH, Class 2) VHH: EVQLVESGGGLVQPGESLRLSCKASGFSLDYYALGWFRQAPGKEREGISCITSSDASAYYTDSVKGRFTISRDNSKNTVYLQMNSLKTEDTAIYYCAAALLTCSSYYDAYTYWGQGTQVTVSS	y
